Entries and their pIC50
- TEST_TARGET: T1, human LILRB2 expressed on cells (293T-LILRB2, CHO-K1-LILRB2) (human, UniProt Q8N423 22-597)
- T1 construct: whole, on cells; the cell line is named under assay; also called HEK293T-LILRB2
- T1 sequence (Q8N423 22-597): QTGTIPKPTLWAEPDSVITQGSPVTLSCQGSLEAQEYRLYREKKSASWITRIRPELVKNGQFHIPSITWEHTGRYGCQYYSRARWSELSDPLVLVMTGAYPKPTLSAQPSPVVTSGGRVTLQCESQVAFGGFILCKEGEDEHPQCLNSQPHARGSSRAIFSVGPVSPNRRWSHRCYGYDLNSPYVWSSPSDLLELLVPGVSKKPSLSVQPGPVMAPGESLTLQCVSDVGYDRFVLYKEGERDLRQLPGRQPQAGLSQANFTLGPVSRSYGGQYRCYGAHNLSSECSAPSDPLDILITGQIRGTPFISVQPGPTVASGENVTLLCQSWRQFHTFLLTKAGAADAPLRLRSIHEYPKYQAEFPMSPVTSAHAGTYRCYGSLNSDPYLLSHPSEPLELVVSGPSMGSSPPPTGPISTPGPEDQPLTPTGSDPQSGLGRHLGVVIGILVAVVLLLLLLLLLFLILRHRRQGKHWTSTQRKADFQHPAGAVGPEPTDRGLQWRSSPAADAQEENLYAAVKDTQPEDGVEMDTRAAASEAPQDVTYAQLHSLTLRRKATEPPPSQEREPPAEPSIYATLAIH
- ASSAY_METHOD_TEXT: flow cytometry, blockade of His-tagged HLA-G tetramer binding to 293T-LILRB2 cells; fit table under the graph
pIC50: −log10 of the molar value.
PROPERTY_NAME: pIC50

{"BINDER": "Antibody h#2D1 (antibody, V domains shown, Humanized variant of 11B12) VH: EVQLVESGGGLVQPGGSLRLSCAVSGYSITSGYYWNWVRQAPGKGLEWVAYISYDGNNNYNPSLKNRFTISRDTSKNTVYLQMNSLRAEDTAVYYCVREESTMITTAWFAYWGQGTLVTVSS VL: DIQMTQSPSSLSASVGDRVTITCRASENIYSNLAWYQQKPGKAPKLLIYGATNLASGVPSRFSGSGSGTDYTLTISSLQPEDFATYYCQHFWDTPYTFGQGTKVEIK", "PROPERTY_NAME": "pIC50", "RESULT_VALUE": 9.21}
{"BINDER": "Antibody 2E1_GF1 (antibody, V domains shown) VH: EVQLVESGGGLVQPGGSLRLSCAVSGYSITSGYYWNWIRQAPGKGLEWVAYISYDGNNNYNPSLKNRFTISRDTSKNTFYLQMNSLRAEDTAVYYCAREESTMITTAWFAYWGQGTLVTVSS VL: DIQMTQSPSSLSASVGDRVTITCRASEVIYSNLAWYQQKPGKAPKLLIYGATNLASGVPSRFSGSGSGTDYTLTISSLQPEDFATYYCQHFWDTPYTFGQGTKVEIK", "PROPERTY_NAME": "pIC50", "RESULT_VALUE": 9.48}
{"BINDER": "Antibody 2E1_GB11 (antibody, V domains shown) VH: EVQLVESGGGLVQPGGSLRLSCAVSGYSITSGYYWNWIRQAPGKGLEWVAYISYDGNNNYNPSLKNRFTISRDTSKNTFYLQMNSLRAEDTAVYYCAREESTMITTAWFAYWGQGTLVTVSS VL: DIQMTQSPSSLSASVGDRVTITCRASENIYSNLAWYQQKPGKAPKLLIYGATNLALGVPSRFSGSGSGTDYTLTISSLQPEDFATYYCQHFWDTPYTFGQGTKVEIK", "PROPERTY_NAME": "pIC50", "RESULT_VALUE": 9.23}
{"BINDER": "Antibody 2E1_FC11 (antibody, V domains shown, also called A16) VH: EVQLVESGGGLVQPGGSLRLSCAVSGYSITSGYYWNWIRQAPGKGLEWVAYISYDGNINYNPSLKNRFTISRDTSKNTFYLQMNSLRAEDTAVYYCAREESTMITTAWFAYWGQGTLVTVSS VL: DIQMTQSPSSLSASVGDRVTITCRASENIYSNLAWYQQKPGKAPKLLIYGATNLASGVPSRFSGSGSGTDYTLTISSLQPEDFATYYCQHFWDYPYTFGQGTKVEIK", "PROPERTY_NAME": "pIC50", "RESULT_VALUE": 9.35}
{"BINDER": "Antibody h#12a (antibody, V domains shown, Humanized variant of 9B6) VH: EVQLVESGGGLVQPGGSLRLSCAASGFTFSNFGMHWVRQAPGKGLEWVAYISSGSGTIYYSDTVRGRFTISRDDSKNTLYLQMNSLRAEDTAVYYCARSDYDGDWFFDVWGQGTLVTVSS VL: DIQMTQSPSSLSASVGDRVTITCKASQDVTTAVAWYQQKPGKAPKLLIYSASFRYTGVPSRFSGSGSGTDFTLTISSLQPEDFATYYCQQHFTTPLTFGQGTKVEIK", "PROPERTY_NAME": "pIC50", "RESULT_VALUE": 9.50}
{"BINDER": "Antibody h#2C1 (antibody, V domains shown, Humanized variant of 11B12) VH: EVQLVESGGGLVQPGGSLRLSCAVSGYSITSGYYWNWVRQAPGKGLEWVAYISYDGNNNYNPSLKNRFTISRDTSKNTFYLQMNSLRAEDTAVYYCAREESTMITTAWFAYWGQGTLVTVSS VL: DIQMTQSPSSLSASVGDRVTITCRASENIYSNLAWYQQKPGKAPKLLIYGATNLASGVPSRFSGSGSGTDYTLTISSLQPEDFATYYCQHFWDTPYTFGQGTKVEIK", "PROPERTY_NAME": "pIC50", "RESULT_VALUE": 9.25}
